All figures here come from the supplement of paper PMC10065799.

Tested on: c-Abl (mouse);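 note: 11-residue human phosphosite peptides and single-mutation variants displayed on the E. coli surface, counted by deep sequencing, each peptide's frequency after selection divided by its frequency in the unselected input library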;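 note: frequency after pTyr selection over input frequency; kinase dosed for 20-30% of maximal phosphorylation in three min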
Test: phosphorylation enrichment, bacterial display (enrichment ratio); higher = better substrate or ligand; peptides without Tyr show the background
ENDPOINT LABEL: phosphorylation enrichment
// response body must contain only the number

Worked cases, answers included:
ECKETYHEGEC [PRKN_Y372_A371T]; 1.03
KVDKEYEVHVR [GHR_Y226_R229H]; 0.576
TDDMRYPMKSE [TGDS_Y302_N298D]; 0.651
CGSLLYGLVHQ [PRKCG_Y122]; 0.664
SEKIVYGHLDD [ACO2_Y71]; 0.793
AELVQYYMEHH [PTPN11_Y80]; 0.826

Ask | Field request: phosphorylation enrichment | item: DSMQSYDLDYP [UNC13B_Y243]
Reply | 0.496
